# Method notes: in vitro
# Condition set: mouse, RAW264.7 cells; at 2 µg/mL
Assay readout: viability at 2 ug/mL

Some solved entries appear below for comparison.
>>> measured("O=C1C2=C(C(=O)c3ccccc31)[C@@H](c1ccc(Oc3ccc(F)cc3)cc1)[C@H](C(=O)c1ccccc1)O2")
"99%"
>>> measured("O=C1C2=C(C(=O)c3ccccc31)[C@@H](c1ccc(OC(F)(F)F)cc1)[C@H](C(=O)c1ccccc1)O2")
"100%"
>>> measured("O=C1C2=C(C(=O)c3ccccc31)[C@@H](c1ccc(F)cc1)[C@H](C(=O)c1ccccc1)O2")
"100%"
>>> measured("O=C1C2=C(C(=O)c3ccccc31)[C@@H](c1ccc(O)c(F)c1)[C@H](C(=O)c1ccccc1)O2")
"45%"
>>> measured("O=C1C2=C(C(=O)c3ccccc31)[C@@H](c1ccccc1F)[C@H](C(=O)c1ccccc1)O2")
"32%"
>>> measured("COc1ccc([C@@H]2C3=C(O[C@H]2C(=O)c2ccccc2)C(=O)c2ccccc2C3=O)cc1F")
"60%"
>>> measured("O=C1C2=C(C(=O)c3ccccc31)[C@@H](c1ccc(O)cc1F)[C@H](C(=O)c1ccccc1)O2")
"22%"
>>> measured("COc1cc(F)c([C@@H]2C3=C(O[C@H]2C(=O)c2ccccc2)C(=O)c2ccccc2C3=O)cc1F")
"60%"

# lookup: viability at 2 ug/mL of O=C1C2=C(C(=O)c3ccccc31)[C@@H](c1ccc(OC(F)F)c(O)c1)[C@H](C(=O)c1ccccc1)O2
46%

Record: COc1ccc([C@@H]2C3=C(O[C@H]2C(=O)c2ccccc2)C(=O)c2ccccc2C3=O)c(C(F)(F)F)c1
100%

How about COc1ccc([C@@H]2C3=C(O[C@H]2C(=O)c2ccccc2)C(=O)c2ccccc2C3=O)c(F)c1 ?
40%

// next record COc1c(F)cc([C@@H]2C3=C(O[C@H]2C(=O)c2ccccc2)C(=O)c2ccccc2C3=O)cc1F
67%

###

Below is a list of entries, each paired with its recorded viability at 8 ug/mL value.
# Method notes: in vitro
# Condition set: mouse, RAW264.7 cells; at 8 µg/mL
In your response, the unit should come after the numeric value.

Examples from the recorded data:
>>> measured("COc1cc(F)c([C@@H]2C3=C(O[C@H]2C(=O)c2ccccc2)C(=O)c2ccccc2C3=O)cc1F")
"59%"
>>> measured("COc1ccc([C@@H]2C3=C(O[C@H]2C(=O)c2ccccc2)C(=O)c2ccccc2C3=O)c(C(F)(F)F)c1")
"100%"
>>> measured("COc1ccc([C@@H]2C3=C(O[C@H]2C(=O)c2ccccc2)C(=O)c2ccccc2C3=O)cc1F")
"51%"

I have this compound here, O=C1C2=C(C(=O)c3ccccc31)[C@@H](c1ccc(Oc3ccc(F)cc3)cc1)[C@H](C(=O)c1ccccc1)O2 , and I need its recorded viability at 8 ug/mL.
99%

Next up: O=C1C2=C(C(=O)c3ccccc31)[C@@H](c1ccc(O)cc1F)[C@H](C(=O)c1ccccc1)O2
19%

Try the compound O=C1C2=C(C(=O)c3ccccc31)[C@@H](c1ccc(O)c(F)c1)[C@H](C(=O)c1ccccc1)O2
41%

Let us now turn to O=C1C2=C(C(=O)c3ccccc31)[C@@H](c1ccc(F)cc1)[C@H](C(=O)c1ccccc1)O2
69%

Same for O=C1C2=C(C(=O)c3ccccc31)[C@@H](c1ccc(OC(F)F)c(O)c1)[C@H](C(=O)c1ccccc1)O2
15%

###

# Method notes: in vitro
# Condition set: mouse, RAW264.7 cells; at 0.5 µg/mL
Assay readout: viability at 0.5 ug/mL (%)
Only the number, expressed in %, is required.

>>> measured("COc1ccc([C@@H]2C3=C(O[C@H]2C(=O)c2ccccc2)C(=O)c2ccccc2C3=O)c(F)c1")
100

Field request: viability at 0.5 ug/mL | item: O=C1C2=C(C(=O)c3ccccc31)[C@@H](c1ccc(OC(F)F)c(O)c1)[C@H](C(=O)c1ccccc1)O2
71

// query: COc1cc(F)c([C@@H]2C3=C(O[C@H]2C(=O)c2ccccc2)C(=O)c2ccccc2C3=O)cc1F
91

COc1ccc([C@@H]2C3=C(O[C@H]2C(=O)c2ccccc2)C(=O)c2ccccc2C3=O)cc1F ?
71

What do we get for O=C1C2=C(C(=O)c3ccccc31)[C@@H](c1ccc(Oc3ccc(F)cc3)cc1)[C@H](C(=O)c1ccccc1)O2 ?
100

Same again, this time with COc1ccc([C@@H]2C3=C(O[C@H]2C(=O)c2ccccc2)C(=O)c2ccccc2C3=O)c(C(F)(F)F)c1
100

Next: O=C1C2=C(C(=O)c3ccccc31)[C@@H](c1ccc(O)cc1F)[C@H](C(=O)c1ccccc1)O2
29

# repeat for COc1c(F)cc([C@@H]2C3=C(O[C@H]2C(=O)c2ccccc2)C(=O)c2ccccc2C3=O)cc1F
85

###

# Method notes: in vitro
# Condition set: mouse, RAW264.7 cells
The class of a record is decided solely by its measured viability at 128 ug/mL; consult LOW: < 3%; MID: ≥ 3% and < 30%; HIGH: ≥ 30%

See these solved cases before continuing.
>>> cat("COc1ccc([C@@H]2C3=C(O[C@H]2C(=O)c2ccccc2)C(=O)c2ccccc2C3=O)c(F)c1")
"MID"
>>> cat("COc1cc(F)c([C@@H]2C3=C(O[C@H]2C(=O)c2ccccc2)C(=O)c2ccccc2C3=O)cc1F")
"MID"

Lab log: COc1c(F)cc([C@@H]2C3=C(O[C@H]2C(=O)c2ccccc2)C(=O)c2ccccc2C3=O)cc1F — assign viability at 128 ug/mL category
MID

Proceed to O=C1C2=C(C(=O)c3ccccc31)[C@@H](c1ccc(OC(F)(F)F)cc1)[C@H](C(=O)c1ccccc1)O2
HIGH

###

# Method notes: in vitro
# Condition set: mouse, RAW264.7 cells; at 0.5 µg/mL
Assay readout: viability at 0.5 ug/mL (%)
Lab book: enter the figure in %, no units written.

# count of solved cases: 3
>>> measured("O=C1C2=C(C(=O)c3ccccc31)[C@@H](c1ccc(O)c(F)c1)[C@H](C(=O)c1ccccc1)O2")
99
>>> measured("O=C1C2=C(C(=O)c3ccccc31)[C@@H](c1ccc(OC(F)(F)F)cc1)[C@H](C(=O)c1ccccc1)O2")
100
>>> measured("O=C1C2=C(C(=O)c3ccccc31)[C@@H](c1ccc(F)cc1)[C@H](C(=O)c1ccccc1)O2")
100

--- query ---
Form field: reported viability at 0.5 ug/mL of O=C1C2=C(C(=O)c3ccccc31)[C@@H](c1ccccc1F)[C@H](C(=O)c1ccccc1)O2
81

###

Listing: viability at 32 ug/mL of selected compounds
# Method notes: in vitro
# Condition set: mouse, RAW264.7 cells; at 32 µg/mL
Write down the numeric answer in % and omit the unit.

Solved cases below.
>>> measured("COc1ccc([C@@H]2C3=C(O[C@H]2C(=O)c2ccccc2)C(=O)c2ccccc2C3=O)c(C(F)(F)F)c1")
100
>>> measured("O=C1C2=C(C(=O)c3ccccc31)[C@@H](c1ccc(Oc3ccc(F)cc3)cc1)[C@H](C(=O)c1ccccc1)O2")
99
>>> measured("COc1c(F)cc([C@@H]2C3=C(O[C@H]2C(=O)c2ccccc2)C(=O)c2ccccc2C3=O)cc1F")
51
>>> measured("O=C1C2=C(C(=O)c3ccccc31)[C@@H](c1ccc(OC(F)(F)F)cc1)[C@H](C(=O)c1ccccc1)O2")
70
>>> measured("O=C1C2=C(C(=O)c3ccccc31)[C@@H](c1ccc(O)cc1F)[C@H](C(=O)c1ccccc1)O2")
15

State the recorded viability at 32 ug/mL for this entry: COc1ccc([C@@H]2C3=C(O[C@H]2C(=O)c2ccccc2)C(=O)c2ccccc2C3=O)cc1F
41

Then what about the compound O=C1C2=C(C(=O)c3ccccc31)[C@@H](c1ccc(O)c(F)c1)[C@H](C(=O)c1ccccc1)O2 ?
10

Next: O=C1C2=C(C(=O)c3ccccc31)[C@@H](c1ccccc1F)[C@H](C(=O)c1ccccc1)O2
15

###

# Assayed target: Prostaglandin E synthase (Homo sapiens)
# Sequence (O14684 whole entry): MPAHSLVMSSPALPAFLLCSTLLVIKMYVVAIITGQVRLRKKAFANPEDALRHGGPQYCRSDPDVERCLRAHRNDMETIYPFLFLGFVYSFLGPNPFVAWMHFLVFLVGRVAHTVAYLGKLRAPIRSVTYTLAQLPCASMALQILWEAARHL
Assay readout: pKi
Just so you know, pKi here is -log10 of the concentration in molar units; reply with that number alone.

Given the entry COc1cc(F)c([C@@H]2C3=C(O[C@H]2C(=O)c2ccccc2)C(=O)c2ccccc2C3=O)cc1F , report its measured pKi.
3.74

###

# Method notes: in vitro
# Condition set: mouse, RAW264.7 cells; at 32 µg/mL
Assay readout: viability at 32 ug/mL

Please report the recorded viability at 32 ug/mL for O=C1C2=C(C(=O)c3ccccc31)[C@@H](c1ccc(F)cc1)[C@H](C(=O)c1ccccc1)O2 .
33%

Next up: O=C1C2=C(C(=O)c3ccccc31)[C@@H](c1ccc(OC(F)F)c(O)c1)[C@H](C(=O)c1ccccc1)O2
5%

Proceed to COc1cc(F)c([C@@H]2C3=C(O[C@H]2C(=O)c2ccccc2)C(=O)c2ccccc2C3=O)cc1F
16%

Likewise for COc1ccc([C@@H]2C3=C(O[C@H]2C(=O)c2ccccc2)C(=O)c2ccccc2C3=O)c(F)c1 ?
35%
